METHOD DESCRIPTION: yeast display, Sf9 membrane polyspecificity reagent, FACS + sequencing; frameworks hold sequencing errors
MEASURE NAME: polyreactivity (PSR sort gate)

CHAIN SEQUENCE	MEASURE NAME	VALUE
QVQLVESGAGLVQAGGSLRLSCAASGRTFVDNTMGLYTHAPGKERELVASISSGGSTYYADSVKGRFTISRDNAKNTVYLQMNRLKPEDTAVYDCATGDTLFVFYPDYEYWGQGTQVTVSS	polyreactivity (PSR sort gate)	low polyreactivity
QVQLVESGGGLVQARVSLRLSCAASGSIFNGYAMRWYRQAPGKESEFVAAISASGGGTYYADSVKGRFTISRDNAKNTVYLQMNSLKPEDTAVYYCNARYHPYYWGYRYDYWGQGTQVTVSS	polyreactivity (PSR sort gate)	low polyreactivity
QVQLVESGGGLVQAGGSLRLSCAASGLTSNGYHMGWYRQAPGKERELVAGITSGGSTYYADSVKGRFTISRDNAKNTVYLQMNSLKPEDTAVYYCNADVTYYIVWEYDYWGQGTQVTVSS	polyreactivity (PSR sort gate)	low polyreactivity
QVQLVESGGGLVQAGGSLRLSCAASGNTFRHNTMGWYRQAPGKERELVSTNYADSVKGRFTISRDNAKNTVYLQMNSLKPEDTAVYYCNADGTFGYEYWGHGTQVTVSS	polyreactivity (PSR sort gate)	low polyreactivity
